- target-under-test: ethylene-forming enzyme (EFE) (Pseudomonas savastanoi)
- Sequence (P32021 whole entry): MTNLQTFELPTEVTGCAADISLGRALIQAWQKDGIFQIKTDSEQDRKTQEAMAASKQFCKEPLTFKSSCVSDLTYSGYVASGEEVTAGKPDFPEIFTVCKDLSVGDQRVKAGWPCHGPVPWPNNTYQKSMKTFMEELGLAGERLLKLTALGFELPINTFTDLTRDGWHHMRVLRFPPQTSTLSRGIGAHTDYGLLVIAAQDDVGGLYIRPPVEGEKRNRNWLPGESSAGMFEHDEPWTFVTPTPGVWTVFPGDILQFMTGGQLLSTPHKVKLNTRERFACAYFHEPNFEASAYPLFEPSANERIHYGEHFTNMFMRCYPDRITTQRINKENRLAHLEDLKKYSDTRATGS
- experiment: anaerobic UV-vis difference titration
- Type: binding
readout-kind: Kd

> print(dat)
                                   molecule                         target.under.test  assay.value
1  N=C(N)NCCC[C@H](N)C(=O)O [L-Arg, L-arginine]  ethylene-forming enzyme (EFE) (Pseudomonas savastanoi)        34 µM
